# Target entity: GlcNAc(b1-2)[GlcNAc(b1-4)]Man(a1-3)[GlcNAc(b1-4)][GlcNAc(b1-2)[GlcNAc(b1-6)]Man(a1-6)]Man(b1-4)GlcNAc(b1-4)[Fuc(a1-6)]GlcNAc
# Method: glycan array binding signal (z-score within array); higher = stronger binding
# Details: glycan notation: IUPAC condensed, linker removed
This is one part of a sample in which the strongest signals are shown more often than they occur.
Endpoint: glycan array binding signal (z-score)
Write no unit; give the number alone.

*Q* Endpoint output: glycan array binding signal (z-score) of Mermaid1 (Stilbonema majum) (protein) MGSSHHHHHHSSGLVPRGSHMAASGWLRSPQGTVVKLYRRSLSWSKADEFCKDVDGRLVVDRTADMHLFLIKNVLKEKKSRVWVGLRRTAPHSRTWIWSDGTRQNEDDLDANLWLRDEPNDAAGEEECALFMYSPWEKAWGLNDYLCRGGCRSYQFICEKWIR . Value?
*A* -0.663
